B1: Twister Ribozyme (parent)
chain: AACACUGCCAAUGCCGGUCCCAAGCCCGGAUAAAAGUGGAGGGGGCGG

# Variants of: B1
# protocolSummary: self-cleavage, relative activity (ratio to wild type); higher = more cleavage; co-transcriptional
measuredProperty: self-cleavage
// return just the number, without any unit appended

Please review the entries below; each comes with its answer.
variantCode: G29U C46A
self-cleavage: 0.876

variantCode: U18C G45U
self-cleavage: 0.228

variantCode: C27A U31G
self-cleavage: 0.629

Prompt: Fill in: self-cleavage of C3A G43C is ___
Response: 0.0669

Prompt: Entry A2C U37C : reported self-cleavage = ?
Response: 0.0354
